Molecular target: HIV integrase (Human immunodeficiency virus type 1 group M subtype B, UniProt P12497, F1332H)
Construct: HIV integrase full length gene
Experiment: Determination of enzyme (HIV integrase) inhibitory activity
Details: recombinant HIV integrase (F185H), strand transfer ELISA, absorbance at 450 nm
pIC50: −log10 of the molar value. Structures can show the parent of a compound that is named as a salt.
Measured Parameter: pIC50

Consider the compound CC(O)c1cn(Cc2cccc(Cl)c2)c(=O)c2c(O)c(=O)ccn12 (centres unmarked) and give its measured pIC50.
7.00 to 8.00

Can you look up the measured pIC50 of O=C(NCc1ccccc1)c1cn2c(c(O)c1=O)C(=O)N(Cc1ccc(F)cc1)CC2 for me?
7.00 to 8.00

May I ask what pIC50 has been recorded for Cn1nc2c(c(O)c1=O)C(=O)N(Cc1cccc(Cl)c1)CC2 ?
6.00 to 7.00

Sample CC(C)Nc1cn2ccn(Cc3cccc(Cl)c3)c(=O)c2c(O)c1=O [Example 280, hydrochloride] — what was its pIC50?
7.00 to 8.00

Report pIC50 for O=c1c(-c2ccccn2)cn2ccn(Cc3cccc(F)c3)c(=O)c2c1O [Example 365, hydrochloride] please.
7.00 to 8.00

Endpoint output: pIC50 of O=C(O)c1cn(Cc2cccc(Cl)c2)c(=O)c2c(O)c(=O)ccn12 . Value?
7.00 to 8.00

Bench note: what pIC50 did O=C1c2c(O)c(=O)c(-c3nccs3)cn2CCN1CCCc1ccccc1F show?
7.00 to 8.00

Suppose we examine the compound O=c1c(CO)cn2ccn(Cc3cccc(Cl)c3)c(=O)c2c1O [Example 216, hydrochloride] ; what pIC50 value has been reported?
7.00 to 8.00

---

Target: HIV integrase (Human immunodeficiency virus type 1 group M subtype B, UniProt P12497, F1332H)
Construct: HIV integrase full length gene
Assay: Determination of enzyme (HIV integrase) inhibitory activity
Details: recombinant HIV integrase (F185H), strand transfer ELISA, absorbance at 450 nm
Structures can show the parent of a compound that is named as a salt.
Measured Parameter: IC50

What IC50 value was documented for this compound, O=C1c2c(O)c(=O)c(-c3nccs3)cn2CCN1Cc1ccc(F)c(F)c1 ?
10 to 100 nM

Reported IC50 for O=c1c(-c2cc3ccccc3o2)cn2ccn(Cc3cccc(Cl)c3)c(=O)c2c1O [Example 124, hydrochloride] : what is it?
10 to 100 nM

Give the measured IC50 of CC(C)S(=O)(=O)Cc1cc(=O)c(O)c2n1CCN(Cc1ccc(Cl)c(Cl)c1)C2=O .
10 to 100 nM

Dear colleague, I am looking for the recorded IC50 of the following compound: Cn1cc2c(c(O)c1=O)C(=O)N(Cc1cccc(Cl)c1)CC2
10 to 100 nM

Please give the measured IC50 for this compound: CC(=O)Nc1cn2c(C)cn(Cc3cccc(Cl)c3)c(=O)c2c(O)c1=O
10 to 100 nM

Query: IC50; subject: CC(=O)OCC(C)(C)C(=O)c1cn2ccn(Cc3cccc(Cl)c3)c(=O)c2c(O)c1=O [Example 229, acetate hydrochloride]
< 10 nM

May I ask what IC50 has been recorded for O=C1c2c(O)c(=O)c(-c3cnccn3)cn2CCN1Cc1cccc(Cl)c1 [Example 416, hydrochloride] ?
10 to 100 nM

Fill in: IC50 of CC(C)C(O)c1cc(=O)c(O)c2n1CCN(Cc1ccc(Cl)c(Cl)c1)C2=O (stereo not shown) is ___
10 to 100 nM

Entry under review: CNC(=O)CNC(=O)c1cn2ccn(Cc3cccc(Cl)c3)c(=O)c2c(O)c1=O . Reported IC50?
10 to 100 nM

Give its IC50 value. Item: CN(C)C(=O)Nc1cn2ccn(Cc3cccc(Cl)c3)c(=O)c2c(O)c1=O
< 10 nM

I am curious: what IC50 value has been reported for CNC(=O)c1cn2ccn(Cc3cccc(Cl)c3)c(=O)c2c(O)c1=O ?
< 10 nM

Reported IC50, compound O=C(O)C1CN(Cc2ccc(Cl)c(Cl)c2)C(=O)c2c(O)c(=O)ccn21 (stereo not shown) : ____
10 to 100 nM

Given the compound O=C(Nc1cn2ccn(Cc3cccc(Cl)c3)c(=O)c2c(O)c1=O)c1ccco1 , what is its reported IC50?
< 10 nM

Query: IC50; subject: O=C(NCc1ccco1)c1cn2c(c(O)c1=O)C(=O)N(Cc1ccc(F)cc1)CC2 [Example 411, hydrochloride]
10 to 100 nM

What does the record list as IC50 for O=C(Nc1cn2ccn(Cc3cccc(Cl)c3)c(=O)c2c(O)c1=O)c1ccccn1 [Example 279, trifluoroacetate] ?
< 10 nM

So what's the measured IC50 for this one? CC(C)(C)c1ccc(CNC(=O)c2cn3c(c(O)c2=O)C(=O)N(Cc2cccc(Cl)c2)CC3)cc1
10 to 100 nM

---

Target: HIV integrase (Human immunodeficiency virus type 1 group M subtype B, UniProt P12497, F1332H)
Construct: HIV integrase full length gene
Assay: Determination of enzyme (HIV integrase) inhibitory activity
Details: recombinant HIV integrase (F185H), strand transfer ELISA, absorbance at 450 nm
Structures can show the parent of a compound that is named as a salt.
Assign IC50 to each entry below.

For the molecule shown here, COC(=O)c1cn2ccn(Cc3cccc(Cl)c3)c(=O)c2c(O)c1=O [Example 147, hydrochloride] , give the reported IC50.
10 to 100 nM

Quick check: IC50 of O=C1c2c(O)c(=O)c(-c3ccccn3)cn2CCN1Cc1cccc(Cl)c1 [Example 282, hydrochloride] ?
< 10 nM

Given O=c1ccn2ccn(CCCc3ccc(Cl)c(Cl)c3)c(=O)c2c1O , state its recorded IC50.
10 to 100 nM

Look up IC50: O=c1c(-c2nccs2)cn2ccn(Cc3cccc(Cl)c3)c(=O)c2c1O [Example 163, hydrochloride]
< 10 nM

Which IC50 is reported for this molecule? CC(C)(C)C(=O)c1cn2ccn(Cc3ccc(F)c(Cl)c3)c(=O)c2c(O)c1=O [Example 217, hydrochloride]
< 10 nM

If you can, please state the reported IC50 value of O=C1c2c(O)c(=O)c(-c3ccccn3)cn2CCN1Cc1cccc(Cl)c1F [Example 317, hydrochloride] .
10 to 100 nM

Any idea what IC50 was measured for CCNc1cn2ccn(Cc3cccc(Cl)c3)c(=O)c2c(O)c1=O [Example 285, hydrochloride] ?
10 to 100 nM

Tell me the measured IC50 of CC(=O)Nc1cn2ccn(Cc3ccc(F)c(Cl)c3)c(=O)c2c(O)c1=O , please.
< 10 nM

Need IC50 of O=C1c2c(O)c(=O)cc(-c3ccccc3)n2CCN1Cc1ccc(Cl)c(Cl)c1 , thanks.
10 to 100 nM

Field request: IC50 | item: O=c1c(-c2ccncc2)cn2ccn(Cc3ccc(F)cc3)c(=O)c2c1O [Example 341, hydrochloride]
< 10 nM

Which IC50 is listed for COC(=O)c1cc(F)ccc1CN1CCn2cc(-c3nccs3)c(=O)c(O)c2C1=O ?
100 to 1000 nM

Quick one: IC50 for CC(C)SCc1cc(=O)c(O)c2n1CCN(Cc1ccc(Cl)c(Cl)c1)C2=O ?
10 to 100 nM

Requested read-out: IC50. Entry: CNC(=O)c1cn2c(c(O)c1=O)C(=O)N(Cc1ccc(Cl)cc1)CC2
10 to 100 nM

Which IC50 reading was recorded for the molecule CN(C)C(=O)C1CN(Cc2ccc(Cl)c(Cl)c2)C(=O)c2c(O)c(=O)ccn21 (centres unmarked) ?
100 to 1000 nM

Fill in the blank: the reported IC50 of O=C(c1ccccc1)c1cc(=O)c(O)c2n1CCN(Cc1ccc(Cl)c(Cl)c1)C2=O is ____.
< 10 nM

Field request: IC50 | item: O=C(CCc1ccccc1)Nc1cn2ccn(Cc3cccc(Cl)c3)c(=O)c2c(O)c1=O
< 10 nM

Param item = O=C(Nc1cn2ccn(Cc3cccc(Cl)c3)c(=O)c2c(O)c1=O)c1cccs1 ; retrieve measured IC50.
< 10 nM

---

Biological target: HIV integrase (Human immunodeficiency virus type 1 group M subtype B, UniProt P12497, F1332H)
Construct: HIV integrase full length gene
Assay: Determination of enzyme (HIV integrase) inhibitory activity
Settings: recombinant HIV integrase (F185H), strand transfer ELISA, absorbance at 450 nm
Structures can show the parent of a compound that is named as a salt.
Assign IC50 to each entry below.

State the recorded IC50 for this entry: O=C1c2c(O)c(=O)c(-c3ccncn3)cn2CCN1Cc1ccc(F)cc1 [Example 392, hydrochloride]
10 to 100 nM

Find the recorded IC50 belonging to COc1cc(Cn2ccn3ccc(=O)c(O)c3c2=O)ccc1Cl [Example 186, hydrochloride] and report it.
10 to 100 nM

Which IC50 is reported for this molecule? O=c1ncn2ccn(Cc3cccc(Cl)c3)c(=O)c2c1O [Example 100, hydrochloride]
10 to 100 nM

If you can, please state the reported IC50 value of CC(C)OCc1cc(=O)c(O)c2n1CCN(Cc1ccc(Cl)c(Cl)c1)C2=O [Example 38] .
10 to 100 nM

So what's the measured IC50 for this one? CCCCNC(=O)c1cn2ccn(Cc3cccc(Cl)c3)c(=O)c2c(O)c1=O [Example 172]
< 10 nM

Look at this molecule and give its reported IC50. CN(c1cn2ccn(Cc3cccc(Cl)c3)c(=O)c2c(O)c1=O)S(C)(=O)=O [Example 211]
< 10 nM

Fill blank: measured IC50 of the molecule O=C(NCc1ccc(F)cc1)c1cn2ccn(Cc3cccc(Cl)c3)c(=O)c2c(O)c1=O [Example 214] is ____.
< 10 nM

Sample O=c1ccn2ccn(Cc3ccc(Cl)cc3O)c(=O)c2c1O [Example 224, hydrochloride] — what was its IC50?
10 to 100 nM

Hey, just so you know, these numbers are from patent US7211572B2.
